// IC50 lookup, one value per entry
TGT: mouse VISTA (mVISTA) (Mus musculus)
Construct: expressed in transfected cells; host or cells: Human embryonic kidney 293T cells
Sequence (Q9D659 33-308): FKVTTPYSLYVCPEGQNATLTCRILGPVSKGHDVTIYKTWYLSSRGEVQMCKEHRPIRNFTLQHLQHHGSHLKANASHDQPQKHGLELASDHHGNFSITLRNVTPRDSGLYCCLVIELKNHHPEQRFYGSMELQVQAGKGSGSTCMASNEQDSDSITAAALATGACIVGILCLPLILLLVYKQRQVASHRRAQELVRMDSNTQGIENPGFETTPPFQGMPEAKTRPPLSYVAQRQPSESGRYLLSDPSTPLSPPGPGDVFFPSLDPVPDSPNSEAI
METHOD NOTES: Cell-Based Binding High-Content Assay For mVISTA (HC CBA mVISTA)
SETTINGS: 293T cells expressing mouse VISTA; competition with biotinylated peptide (2 nM); read-out: HC CBA mVISTA IC50
Text: Cell-Based Binding High-Content Assay For mVISTA Human embryonic kidney 293T cells (293T) expressing mouse VISTA (mVISTA) were used for the assessment of compounds competing with the binding of a biotinylated peptide. […] The plates were washed 3 times in dPBS, sealed, and read on a CellInsight NXT High Content Screening Platform IC903000 (Thermo Scientific). […]
Positions of bridges follow the written chain, without caps; N, C: chain ends. Non-standard residues stand in square brackets, D forms with d. Residues, ends and D or L forms follow the SMILES beside them. Ahp(2) = CCCCC[C@H](N)C(=O)O; NHexGly = CCCCCCNCC(=O)O; Nva = CCC[C@H](N)C(=O)O
Write it as a number; the unit nM goes unstated.

CCCCCCN1CC(=O)N[C@@H](Cc2ccc(O)cc2)C(=O)N[C@@H](CCC)C(=O)N[C@@H](CC(N)=O)C(=O)N[C@@H](CCCNC(=N)N)C(=O)N[C@@H](CC(C)C)C(=O)N[C@@H](CCCCC)C(=O)N2CCC[C@H]2C(=O)N[C@@H](C(C)C)C(=O)N[C@@H](CO)C(=O)N[C@H](C(=O)NCC(=O)O)CSCC(=O)N[C@@H](Cc2ccccc2)C(=O)N[C@@H](Cc2ccc(O)cc2)C(=O)N[C@@H](CC(=O)O)C1=O [Example 1047] ({CH2CO}-FYD[NHexGly]Y[Nva]NRL[Ahp(2)]PVSCG-OH; thioether N-14) = 32.2

Kindly review the next compound as well.
State the recorded IC50 for this entry: CCCCCCN1CC(=O)N[C@@H](Cc2ccc(O)cc2)C(=O)N[C@@H](CCCCC)C(=O)NCC(=O)N[C@@H](CCCNC(=N)N)C(=O)N[C@@H](Cc2ccc(O)cc2)C(=O)N[C@@H](CCCCC)C(=O)N2CCC[C@H]2C(=O)N[C@@H](C(C)C)C(=O)N[C@@H](CO)C(=O)N[C@H](C(=O)NCC(N)=O)CSCC(=O)N[C@@H](Cc2ccccc2)C(=O)N[C@@H](Cc2ccc(O)cc2)C(=O)N[C@@H](CC(=O)O)C1=O [Example 1093] ({CH2CO}-FYD[NHexGly]Y[Ahp(2)]GRY[Ahp(2)]PVSCG-NH2; thioether N-14)
40.4

Source: patent US20240218022A1
